pIC50: −log10 of the molar value.
Here we gather pIC50 data for SYK kinase (Homo sapiens) reported by several publications.

Known results for molecules:
COc1ccc(-c2ncon2)cc1-c1cc2nccc(-c3c(OC)cccc3OC)c2o1 : > 7.00
CC(=O)N1CCN(c2ccc(Nc3nc4ccc(C)cc4c4cn[nH]c34)cc2)CC1 : 6.00 to 7.00
CC1(C)OC(=O)Nc2cc(Nc3nc4c(N5CCC6(CC5)CNC(=O)O6)nccn4n3)ccc21 : > 7.00

Ask: Give the measured pIC50 for CC(=O)N1C[C@H](O)C[C@@H]1c1nc(-c2ccc(O[C@H](C)C3CC3)cc2)c2cnc3[nH]ccc3n12 (single isomer, unassigned)
Result: 7.00 to 7.52

Ask: Give the measured pIC50 for `COc1cc(Nc2nc3cncc(-c4cnn(C)c4)n3n2)ccc1NC(C)=O`
Result: 5.30 to 6.00

Ask: Give the measured pIC50 for `c1nn(C2CCOCC2)cc1Nc1nc(C2CC2)nc2cn[nH]c12`
Result: 7.00 to 8.00

Ask: Give the measured pIC50 for `CC(=O)N1C[C@H](O)C[C@@H]1c1nc(-c2ccc(OCC3(C)COC3)cc2)c2cnc3[nH]ccc3n12`
Result: 7.52 to 8.00

###

pIC50: −log10 of the molar value.
Here we gather pIC50 data for SYK kinase (Homo sapiens, UniProt P43405) reported by several publications.

Cc1ccnc(Nc2cccc(-c3cnc(-c4ccc5[nH]ccc5c4)o3)n2)c1 : > 6.00
CC1(C)C(=O)Nc2cc(Nc3nc4c(N5CCCC6(C5)NC(=O)NC6=O)nccn4n3)ccc21 (stereo not drawn) : 5.52 to 6.52

Ask: Give the measured pIC50 for `c1cc(-c2nc(Nc3ccc(N4CCOCC4)cc3)c3[nH]ncc3n2)on1`
Result: > 8.00

###

pIC50: −log10 of the molar value.
Here we gather pIC50 data for UniProt P43405 reported by several publications.

CC1(C)C(=O)Nc2cc(Nc3nc4c(OC5CCNC5)nccn4n3)ccc21 (stereo not drawn) : 4.30 to 5.52
COc1cc(Nc2nc3c(-c4cn[nH]c4)nccn3n2)cc(OC)c1 : > 6.52

Ask: Look up and report pIC50, with UniProt P43405 as system, for COc1cc(Nc2cc(Oc3ccc(NC(=O)Nc4cc(C(C)(C)C)cc([S+](C)[O-])c4OC)c4ccccc34)ccn2)cc(C(N)=O)c1 (stereo not drawn)
Result: < 6.16

Ask: Look up and report pIC50, with UniProt P43405 as system, for `Cc1c(Nc2ccnc3cc(-c4ccc(N5CCOCC5)cc4)oc23)ccc2[nH]ccc12`
Result: 5.52 to 6.52

Ask: Look up and report pIC50, with UniProt P43405 as system, for `O=C1Cc2cc(Nc3nc4cncc(-c5ccc(N6CCOCC6)cc5)n4n3)ccc2N1`
Result: 5.30 to 6.00

Ask: Look up and report pIC50, with UniProt P43405 as system, for `CN(CCOCCC(=O)NO)c1ccc(Nc2nc(-c3ccc4cn[nH]c4c3)cn3ccnc23)cc1`
Result: > 7.30

###

Here we gather IC50 data for SYK kinase (Homo sapiens) reported by several publications.

Known results for compounds:
COc1cc(-c2cc3nccc(-c4cnn(C)c4)c3o2)cc(OC)c1OC : < 300 nM
COCCOCCO[C@H]1CNc2cc(Nc3ncc(C(N)=O)c(NC4CC4)n3)ccc2OC1 : 10 to 100 nM
CC1(C)CCNc2cc(Nc3nc4c(N5CCC6(CCNC6)C5)nccn4n3)ccc21 (stereo not shown) : < 100 nM

Continue with the compound presented below.
Ask: Look up and report IC50, with SYK kinase (Homo sapiens) as system, for `CC(=O)N1C[C@H](O)C[C@@H]1c1nc(-c2ccc(C3CCOCC3)cc2)c2cnc3[nH]ccc3n12`
Result: < 10 nM

###

pIC50: −log10 of the molar value.
Here we gather pIC50 data for SYK kinase (Homo sapiens, UniProt P43405) reported by several publications.

Cn1ncc2cc(-c3cc4nccc(-c5cccc(C(=O)N[C@@H]6CCCC[C@@H]6N)c5)c4o3)ccc21 : > 6.52
CC(C)Oc1cccc(Nc2nc(NC3CC4CCC3C4)c3nc[nH]c3n2)c1 (racemic) : > 5.00
CCC1C(=O)NCCN1c1ncc(-c2cccc(Nc3nccc(C(F)(F)F)n3)c2)o1 (stereo not shown) : ≥ 7.00
Cn1cc(-c2nccn3nc(Nc4ccc5cc[nH]c5c4)nc23)cn1 : 6.52 to 7.00

Ask: Look up and report pIC50, with SYK kinase (Homo sapiens, UniProt P43405) as system, for `CNC(=O)Cc1cc(C(C)(C)C)cc(NC(=O)Nc2ccc(Oc3ccnc(Nc4cccc(OC)c4)c3)c3ccccc23)c1OC`
Result: 5.97

###

Here we gather IC50 data for SYK kinase (Homo sapiens) reported by several publications.

Known results for molecules:
CN(C)c1ccc(-c2cc3nccnc3c(OC[C@@H]3CN(C(=O)c4ncc[nH]4)CCO3)n2)cc1 : 110 nM
CC(c1ccccc1)n1cc(Nc2nc(-c3ccc4cn[nH]c4c3)nc3cn[nH]c23)cn1 (centres unmarked) : 100 to 1000 nM
CC1(C)Oc2ccc(Nc3nc(Nc4ccc(N5CCOCC5)cc4)ncc3F)nc2NC1=O : 80 nM
CC1(C)C(=O)Nc2cc(Nc3nc4c(N5CC[C@@H](O)C5)nccn4n3)ccc21 : 100 to 300 nM
C=C(C)c1ccc(-c2cc3nccnc3c(OC[C@@H]3CN(S(C)(=O)=O)CCO3)n2)cc1 : 192 nM

Continue with the molecule presented below.
Ask: Look up and report IC50, with SYK kinase (Homo sapiens) as system, for `C#Cc1cc(Nc2cc(Oc3ccc(NC(=O)Nc4cc(C(C)(C)C)nn4C)c4ccccc34)ccn2)cc(C(=O)NCCOCCOCCOC)c1`
Result: > 1000 nM

###

Here we gather pIC50 data for SYK kinase (Homo sapiens) reported by several publications.
pIC50: −log10 of the molar value.

CC(=O)N1C[C@H](O)C[C@@H]1c1nc(-c2cnc(C(C)(C)C)s2)c2cnc3[nH]ccc3n12 : 7.00 to 7.52

Ask: Look up and report pIC50, with SYK kinase (Homo sapiens) as system, for `Clc1ccc(COc2cccc(Nc3nccc(-c4nccs4)n3)c2)cc1Cl`
Result: < 5.70

Ask: Look up and report pIC50, with SYK kinase (Homo sapiens) as system, for `Cc1cc(C)cc(-c2cc3nccc(Nc4ccc5[nH]ccc5c4C)c3o2)c1`
Result: 5.52 to 6.52

Ask: Look up and report pIC50, with SYK kinase (Homo sapiens) as system, for `CC(C)(C#N)n1cc(Nc2nc(C3CC3)nc3cn[nH]c23)cn1`
Result: 6.00 to 7.00

Ask: Look up and report pIC50, with SYK kinase (Homo sapiens) as system, for `CN(C)c1ccc(-c2cc3nccnc3c(OC[C@@H]3CN(C(=O)N4CCC4)CCO3)n2)cc1`
Result: 7.06
